Cited source for all entries: BindingDB's records for doi:10.1016/j.chembiol.2016.06.016

Biological target: Cytochrome b (Candida albicans)
Sequence (I2BJW5 whole entry): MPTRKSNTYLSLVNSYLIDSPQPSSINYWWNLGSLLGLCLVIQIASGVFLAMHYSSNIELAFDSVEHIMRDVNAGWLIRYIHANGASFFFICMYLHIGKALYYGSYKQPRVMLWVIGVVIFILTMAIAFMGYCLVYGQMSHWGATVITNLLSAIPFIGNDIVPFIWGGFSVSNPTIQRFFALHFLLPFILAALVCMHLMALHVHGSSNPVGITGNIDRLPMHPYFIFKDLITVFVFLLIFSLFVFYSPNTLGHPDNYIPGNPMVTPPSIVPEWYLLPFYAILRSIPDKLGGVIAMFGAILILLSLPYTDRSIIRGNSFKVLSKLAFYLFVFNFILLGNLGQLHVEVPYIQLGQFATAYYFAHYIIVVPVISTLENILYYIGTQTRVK
pIC50: −log10 of the molar value.
Entries annotated with measured pIC50
Property: pIC50

- Fc1ccc(C(F)(F)F)cc1-c1nn(Cc2cnccn2)c2ccccc12: 6.35
- CCCCCCC1C(=O)O[C@H](C)[C@H](NC(=O)c2cccc(NC=O)c2O)C(=O)O[C@@H](C)[C@@H]1OC(=O)CC(C)C (some centres undefined): 8.30

====

pIC50: −log10 of the molar value.
Quick record: pIC50, Cytochrome b (Homo sapiens, UniProt P00156).
Property: pIC50

- COC(=O)Cn1nc(-c2c(F)cccc2F)c2ccccc21 [Inz-59]: < 4.19
- COC(=O)Cn1nc(-c2ccccc2OC)c2ccccc21 [Inz-16]: < 4.19
- Cc1cccc2c(-c3cc(C(F)(F)F)ccc3F)nn(Cc3nnn(C)n3)c12 [Inz-5]: 5.19
- COC(=O)Cn1nc(-c2cccc(OCc3ccccc3)c2)c2ccccc21 [Inz-42]: < 4.19
- Fc1ccc(C(F)(F)F)cc1-c1nn(Cc2cnccn2)c2ccccc12 [Inz-94]: 4.46
- COC(=O)Cn1nc(-c2cccc(C(F)(F)F)c2)c2ccccc21 [Inz-10]: 5.06
- c1ccc(-c2nn(Cc3nccs3)c3ccccc23)cc1 [Inz-30]: < 4.19
- COC(=O)Cn1nc(-c2cccc(OCc3ccccc3)c2C)c2ccccc21 [Inz-66]: < 4.19
- c1ccc(-c2nn(Cc3cncnc3)c3ccccc23)cc1 [Inz-93]: < 4.19
- CC(=O)Nc1ccc2c(-c3cc(C(F)(F)F)ccc3F)nn(Cc3cnccn3)c2c1 [Inz-101]: < 4.19
- COC(=O)Cn1nc(-c2ccccc2O)c2ccccc21 [Inz-52]: < 4.19
- COC(=O)Cn1nc(-c2cccc(OCCC(C)C)c2)c2ccccc21 [Inz-57]: 5.32
